# METHOD DESCRIPTION: RAM signaling pathway blockade in yeast – S. cerevisiae, Pdr1DBD-CYC8 efflux-inhibited sensitized strain, primary screen (AID 1298);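 further: 0% = DMSO untreated cells without growth and 100% = 10 µM 1-NA-PP1 full growth; higher means more yeast growth rescued from 5-FOA killing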
# CONDITION PARAMETERS: S. cerevisiae cbk1-as DSE1-URA3 strain, 5-FOA growth OD615, 2 d; at 50 µM; hits give high values
Listing of recorded RAM network inhibition by entry.
MEASURED PARAMETER: RAM network inhibition (%)

INSERT INTO results (compound, value) VALUES
  ('CC(C)NC(=O)C1CCCN(c2nnc(-n3cccc3)s2)C1 (stereo unspecified)', 0.02),
  ('CC(=O)OCCn1c(=O)c2cc3c(=O)n(CCOC(C)=O)c(=O)c3cc2c1=O', 1.25),
  ('O=C(Cn1cc2c(n1)CCCC2)NCc1cccnc1', 3.68),
  ('Cc1csc2nc(CNS(=O)(=O)N(C)C)cn12', 0.05),
  ('CCCN1C(=O)c2cc(C(=O)NC3CCCC3)ccc2C1O (stereo unspecified)', 9.43),
  ('CCCC(=O)Nc1nc2ccc(OC)cc2s1', 2.32);

* * *

# METHOD DESCRIPTION: growth suppression of PTEN-deleted HCT116, pilot screen, cell-based, HCT116 clonal line, CellTiter-Glo (AID 824);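 further: 0% = 20 µM Hyamine control and 100% = vehicle cell control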
# CONDITION PARAMETERS: 60 h, at 10 µM, hits give low values
Results filed as inconclusive are left out.
Listing of recorded viability by entry.
MEASURED PARAMETER: viability (%)

INSERT INTO measurements (compound, measured_parameter, value) VALUES
  ('Cc1ccc(C)c(N(C)S(=O)(=O)c2cccc3nsnc23)c1', 'viability', 75.5),
  ('COCCn1c(=O)[nH]c2cc(C(=O)NCCN3CCN(c4ccccc4)CC3)ccc2c1=O', 'viability', 93.2),
  ('Cc1ccc(O)c(C2=NOC(O)(C(F)(F)C(F)F)C2)c1 (stereo unspecified)', 'viability', 92.9),
  ('Clc1ccc(Cc2nnc(-c3ccccc3Br)o2)cc1', 'viability', 91.3),
  ('N=c1n(CCO)c2ccccc2n1CCOc1ccc(Cl)cc1Cl', 'viability', 1.54),
  ('O=C(CSc1cn(CCNC(=O)c2cccs2)c2ccccc12)NCC1CCCO1 (stereo unspecified)', 'viability', 96.1),
  ('CCn1cc(C(=O)NCCCN2CC(C)CC(C)C2)c(=O)c2cc(S(=O)(=O)N(C)C)ccc21 (stereo unspecified)', 'viability', 98.7),
  ('CC(=NCCc1ccccc1)C1=C(O)COC1=O', 'viability', 99.9),
  ('c1ccc(C2NCCn3cccc32)cc1 (stereo unspecified)', 'viability', 98),
  ('O=c1cc(O)c2c(=O)n(-c3ccccc3)c3ccccc3c2o1', 'viability', 87.1),
  ('CCn1c(C(=O)N2CCc3ccccc3C2)cc2sccc21', 'viability', 74.5),
  ('Cc1nnc(-c2ccccc2)c[n+]1[O-]', 'viability', 95.2),
  ('CC1(C)NC(C)(C)c2nonc2/C1=N\O', 'viability', 102),
  ('COc1ccccc1NC(=O)NCCN1C(=O)C2C3C=CC(C3)C2C1=O (stereo unspecified)', 'viability', 105),
  ('COc1ccc(OC)c(C2CC(=O)c3c([nH]c(C(=O)OCC4CCCO4)c3C)C2)c1 (stereo unspecified)', 'viability', 39),
  ('O=C(OCC(=O)c1cccs1)c1ccc(NC(=O)c2ccco2)cc1', 'viability', 76.1),
  ('O=C(NCCc1ccc(Cl)cc1)c1nnc(Cc2ccc(Cl)cc2)o1', 'viability', 103),
  ('O=C(CCS(=O)(=O)c1ccccc1)Nc1nc(-c2ccccn2)cs1', 'viability', 6.03),
  ('O=C(CSc1nc2c([nH]c3ccccc32)c(=O)n1-c1cccc(Cl)c1)N1CCOCC1', 'viability', 79.9),
  ('Cc1c(NC(=O)OCCSc2nc(N(C)C)nc(N(C)C)n2)sc(=S)n1C', 'viability', 76),
  ('O=C(NCCN1CCOCC1)c1ccc2c(c1)ncn2C1CCCC1', 'viability', 105),
  ('CCOC(=O)c1ccc(NC(=O)NS(=O)(=O)c2ccc(C)cc2)cc1', 'viability', 94),
  ('COc1ccccc1OCC(=O)Nc1ccc(S(=O)(=O)N2CCCCCC2)cc1', 'viability', 82.1),
  ('CC(=O)c1cccc(NC(=O)N2CCCC2C(=O)NCc2ccccc2)c1 (stereo unspecified)', 'viability', 100),
  ('Nc1nnc(CCc2ccccc2)s1', 'viability', 98.9),
  ('CC1=C(C(=O)N(C)C)C(c2cccc(Cl)c2)NC(=O)N1 (stereo unspecified)', 'viability', 94.9),
  ('O=C(CN1CCN(C2CCCCC2)CC1)Nc1ccccc1N1CCCCC1', 'viability', 77.7),
  ('Cn1c(=O)oc2cc(S(=O)(=O)NCCCN3CCCC3=O)ccc21', 'viability', 98.7),
  ('Cn1c(C(=O)NCCCN2CCOCC2)cc2c(=O)n(C)c3ccccc3c21', 'viability', 91.5),
  ('CCCC(C(=O)N1CCOCC1)N1C(=O)C2C3C=CC(C3)C2C1=O (stereo unspecified)', 'viability', 99),
  ('O=C(CSc1nc2ccccc2c(=O)n1-c1ccccc1)N1CCN(CCO)CC1', 'viability', 98.6),
  ('O=C(CCCC(=O)Nc1cccnc1)Nc1cccnc1', 'viability', 99.2),
  ('O=C(CSc1ncnc2c1oc1ccccc12)NCc1ccc(F)cc1', 'viability', 81),
  ('COc1cc(C2NC(=O)NC(C)=C2C(=O)OCc2ccc(C)cc2)cc(OC)c1O (stereo unspecified)', 'viability', 82.1),
  ('Cc1[nH]nc2c1/C(=N\O)CC(C)(C)C2', 'viability', 98.1),
  ('CCCC(=O)NCCc1cc2ccc(C)c(C)c2[nH]c1=O', 'viability', 97.6),
  ('COc1ccccc1CNC(=O)c1nnc(Cc2ccc(Cl)cc2)o1', 'viability', 99.8),
  ('COc1cccc(-n2nnc3c(=O)n(CC(=O)NCC4CCCO4)cnc32)c1 (stereo unspecified)', 'viability', 93.7),
  ('COC(=O)C1=C(C)N(C)C(=O)NC1c1ccc(O)c(OC)c1 (stereo unspecified)', 'viability', 98.9),
  ('CC1Cn2c(COc3ccccc3)nnc2S1 (stereo unspecified)', 'viability', 94.1),
  ('CCN1CCN(C(c2ccccc2)c2sc3nc(C)nn3c2O)CC1 (stereo unspecified)', 'viability', 101),
  ('N#Cc1c(SCC(N)=O)nc2c(c1-c1ccc(O)cc1)CCCC2', 'viability', 93.6),
  ('Cc1ccc2oc(=O)c3cnn(CC(=O)N4CCN(c5ccccn5)CC4)c3c2c1', 'viability', 87.6),
  ('COc1ccc(Br)cc1C1CC(=O)N2CN(Cc3ccccc3)CSC2=C1C#N (stereo unspecified)', 'viability', 87.5),
  ('Cc1c2cn[nH]c(=O)c2c(C)n1Cc1ccc(F)cc1', 'viability', 98.5),
  ('COc1ccc(OCC(=O)Nc2cc(-c3nn4c(C)nnc4s3)ccc2C)cc1', 'viability', 94);

* * *

# METHOD DESCRIPTION: inhibitors of the yeast RAM network, pilot screen, dse1pr::URA3 reporter, 5-FOA selection (AID 869);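 further: 0% = DMSO wells with no growth and 100% = 10 µM 1-NA-PP1 with full growth; RAM network block rescues cells from 5-FOA so hits raise OD615 growth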
# CONDITION PARAMETERS: S. cerevisiae dse1pr::URA3 5-FOA growth, OD615, 2 d; at 10 µM; hits give high values; strain carries analog-sensitive mutant Cbk1 kinase
MEASURED PARAMETER: inhibition (%)

INSERT INTO measurements (compound, measured_parameter, units_of_measure, value) VALUES
  ('Cc1[nH]n(-c2ccccc2)c(=O)c1S(=O)(=O)c1ccccc1', 'inhibition', '%', 0.08),
  ('COc1ccccc1-c1cc(C(=O)N2CCCCC2)no1', 'inhibition', '%', 2.1),
  ('Cc1ccc(-n2ncc3c(=O)[nH]c(SCC(=O)N4CCC(C)CC4)nc32)cc1C', 'inhibition', '%', 1.89),
  ('CCn1c2ccccc2c2cc(NC(=O)C3CCN(S(=O)(=O)c4cccs4)CC3)ccc21', 'inhibition', '%', 0.19),
  ('CCOc1ccc(NC(=O)N(CCN(C)C)C(C)c2ccncc2)cc1 (stereo unspecified)', 'inhibition', '%', 1.05),
  ('O=C1C=C(N(CCO)CCO)C2(CCCCC2)O1', 'inhibition', '%', 1.23),
  ('CC(=O)NC(CCS(C)(=O)=O)C(=O)Nc1ccc(Oc2ccccc2)cc1 (stereo unspecified)', 'inhibition', '%', 1.69),
  ('O=C(COc1cc(=O)n2c(n1)SCCC2)c1ccccc1', 'inhibition', '%', 1.56),
  ('CCOC(=O)c1ccc2nc(NC(=O)C(C)C)sc2c1', 'inhibition', '%', 1.98),
  ('Cn1c(Cn2c(=O)sc3ccccc32)nnc1SCC(=O)N1CCCCCC1', 'inhibition', '%', 2.58),
  ('O=C(Nc1sc2c(c1C(=O)O)CCCCC2)c1ccco1', 'inhibition', '%', -0.91);
